Test system: CCRF-CEM leukemia
Assay overview: NCI tumour cell line growth inhibition, 48 h
Listing: GI50 of selected compounds

Compound: N[C@@H]1CCCC[C@@H]1N.O=C([O-])CN(CP(=O)([O-])[O-])CP(=O)([O-])[O-].[Pt+2]
GI50: 29000 nM

Compound: Cc1cc(C)n(C(=O)c2nn(-c3ccc(Cl)cc3)cc2O)n1
GI50: 3660 nM

Compound: O=C(O)c1cc(Cc2ccc(O)c(C(=O)O)c2)ccc1O (tested in a mixture with another compound)
GI50: 2250 nM

Compound: COc1ccc(/C=C/C(=O)c2cc3c(N)c(C(=O)Nc4ccccc4C)sc3nc2C)cc1
GI50: 475 nM

====

System: SR leukemia
Assay overview: NCI tumour cell line growth inhibition, 48 h

Molecule: O=c1c2ccccc2[nH]c(=S)n1-c1ccc(N=Nc2cccc3cc(O)ccc23)cc1
TGI: > 100 µM
//
Molecule: O=C(O)Cn1c(=O)[nH]c(=O)c2[nH]cnc21
TGI: > 100 µM
//
Molecule: COc1ccc(CCNC(=O)CCc2ccccc2CO)cc1OC
TGI: > 100 µM
//
Molecule: CC(O)(CNS(=O)(=O)c1ccccc1)c1ccccc1 (stereo not given)
TGI: > 100 µM
//
Molecule: COc1ccc(C(=O)N(C(=O)N2CCN(c3ccccc3)CC2)S(=O)(=O)c2ccccc2)cc1
TGI: 42.8 µM
//
Molecule: CSc1nc2c(c(O)c(C)c(=O)n2C2OCC(OC(C)=O)C(OC(C)=O)C2OC(C)=O)c(=O)n1C (stereo not given)
TGI: > 100 µM
//
Molecule: Cc1cccc2c1O/C(=C\c1ccc([N+](=O)[O-])o1)C2=O
TGI: 0.727 µM
//
Molecule: O=C(O)c1cc(O)c2c(c1)C([C@@H]1c3cccc(O)c3C(=O)c3c(O)cc(C(=O)O)cc31)c1cccc(O)c1C2=O (stereo not given in full)
TGI: > 100 µM
//
Molecule: S=C1N=C(Cl)/C(=C\c2ccco2)N1
TGI: > 100 µM
//
Molecule: O=C1CCCCC(=O)Nc2ccccc2N1
TGI: > 100 µM

====

Test system: KM12 colon
Assay overview: NCI tumour cell line growth inhibition, 48 h
Listing: TGI of selected compounds

Compound: Cc1[nH]nc2c1C(=O)C=C(N(CCO)c1ccccc1)C2=O
TGI: > 100 µM
//
Compound: CC(C(=O)c1ccc(Cl)cc1)C1OC(=O)C(Cl)=C1Cl (centres undefined)
TGI: > 100 µM
//
Compound: CCOC(=O)C(=O)NCCCN1CCOCC1
TGI: > 100 µM
//
Compound: COc1ccc(C(=O)N(C(=O)N2CCN(c3ccccc3)CC2)S(=O)(=O)c2ccccc2)cc1
TGI: > 100 µM
//
Compound: CN1CCN(c2ccc(NC3=C(Cl)C(=O)c4ncccc4C3=O)cc2C#N)CC1
TGI: 25.4 µM
//
Compound: COc1cc(-c2cc(/C=C3\C(=O)Nc4ccccc43)[nH]n2)cc(OC)c1OC
TGI: 10.7 µM
//
Compound: CC(=O)OC1CCC2(C)C(=CCC3C4CCC5(OC6CC(C)CN(C(C)=O)C6C5C)C(C)=C4C(=O)C32)C1 (centres undefined)
TGI: 37.6 µM
//
Compound: CC(=O)OC1CC[C@@]2(C)C(C1)CC(OC(C)=O)[C@@H]1C2CC(OC(C)=O)[C@]2(C)C(C(C)CC=C(c3ccc(Cl)cc3)c3ccc(Cl)cc3)CCC12 (some centres undefined)
TGI: > 100 µM
//
Compound: CCCC(=O)Oc1ccc2c(C)cc(=O)oc2c1OC(=O)CCC
TGI: > 100 µM

====

Test system: SK-MEL-5 melanoma
Assay overview: NCI tumour cell line growth inhibition, 48 h
Listing: TGI of selected compounds
Reported metric: TGI (µM)

Compound: CCCC(=O)OCC1OC(n2cc(F)c(=O)[nH]c2=O)C(F)C1OC(=O)CCC (stereo not drawn)
Limit operator: >
Result value: 100
//
Compound: COc1ccc(CC(NC(=O)[C@H](C)NC(=O)CN2CCOCC2)C(=O)N[C@@H](Cc2ccccc2)C(=O)[C@@]2(C)CO2)cc1 (stereo partly drawn)
Limit operator: =
Result value: 0.379
//
Compound: c1cc[c]([Sn]([S]c2cccc3cccnc23)([S]c2cccc3cccnc23)[c]2ccccc2)cc1
Limit operator: =
Result value: 0.483

====

System: 786-0 renal
Assay overview: NCI tumour cell line growth inhibition, 48 h; in the data active = GI50 below about 0.43 µM; inactive = the rest
Outcome codes: t for active, f for inactive

Molecule: COc1cc2cc(Oc3ccc(NC(=O)Nc4ccc(Cl)c(C(F)(F)F)c4)cc3)c(C)nc2cc1OC
Target under test: 786-0 renal
Assigned category: f
--
Molecule: C#Cc1cccc(Oc2ccc(NC(=O)CCl)cc2)c1
Target under test: 786-0 renal
Assigned category: f
--
Molecule: N#C/C(N)=C(\C#N)N=Cc1csc2ccccc12
Target under test: 786-0 renal
Assigned category: f
--
Molecule: CC(=O)c1cc2c(c3ccsc13)-c1ccccc1CC2
Target under test: 786-0 renal
Assigned category: f
--
Molecule: CC(C)(C)OC(=O)CN1CCc2c(sc3ncnc(N/N=C/c4cccc5ccccc45)c23)C1
Target under test: 786-0 renal
Assigned category: f
--
Molecule: Nc1ccc2ccc(NS(=O)(=O)N3CCCCC3)cc2c1
Target under test: 786-0 renal
Assigned category: f
--
Molecule: Cc1ccc2c(c1)O/C(=C\c1ccc([N+](=O)[O-])o1)C2=O
Target under test: 786-0 renal
Assigned category: f
--
Molecule: O=C(Nc1cccc(O)c1)c1cccc(NC2=C(Cl)C(=O)N(Cc3ccccc3)C2=O)c1
Target under test: 786-0 renal
Assigned category: f
--
Molecule: CO[C@@]12C[C@H]3[C@@H]([C@@H](O)[C@@H](OC(=O)/C=C/c4ccccc4)[C@@]4(O)C(C)(C)CCC[C@]34C)[C@@H](C)C1=CC(=O)O2
Target under test: 786-0 renal
Assigned category: f
--
Molecule: Cc1nc2cc(Nc3nc(Nc4ccc(F)cc4)nc(N4CCN(C)CC4)n3)ccc2n1Cc1ccccc1
Target under test: 786-0 renal
Assigned category: f
--
Molecule: COc1cc(NCc2ccccc2O)c2ncccc2c1
Target under test: 786-0 renal
Assigned category: f
--
Molecule: O=C(O)c1cc(Cc2ccc(O)c(C(=O)O)c2)ccc1O (tested in a mixture with another compound)
Target under test: 786-0 renal
Assigned category: f
--
Molecule: CCN(CC)CCOc1ccc2c(c1)C(=O)c1cc(OCCN(CC)CC)ccc1-2
Target under test: 786-0 renal
Assigned category: f
--
Molecule: COc1cc(-c2cc(/C=C3\C(=O)Nc4ccccc43)[nH]n2)cc(OC)c1OC
Target under test: 786-0 renal
Assigned category: f
--
Molecule: c1cc[c]([Sn]([S]c2cccc3cccnc23)([S]c2cccc3cccnc23)[c]2ccccc2)cc1
Target under test: 786-0 renal
Assigned category: t

====

System: SR leukemia
Assay overview: NCI tumour cell line growth inhibition, 48 h; in the data active = GI50 below about 0.43 µM; inactive = the rest
Outcome codes: yes (1) = active, no (0) = inactive

Compound: COc1ccc(/C=C/C(=O)c2cc3c(N)c(C(=O)Nc4ccccc4C)sc3nc2C)cc1
Assigned category: no (0)
--
Compound: CCN(CC)CCOc1ccc2c(c1)C(=O)c1cc(OCCN(CC)CC)ccc1-2
Assigned category: no (0)
--
Compound: O=C(NNS(=O)(=O)c1ccc(F)cc1)c1cccnc1Nc1ccc(Cl)cc1Cl
Assigned category: no (0)
--
Compound: COc1cc(NCc2ccccc2O)c2ncccc2c1
Assigned category: no (0)
--
Compound: C1=C(c2ccccc2)C(c2ccc(OCCN3CCCCC3)cc2)Oc2ccccc21 (stereo not given)
Assigned category: no (0)
--
Compound: CO[C@@]12C[C@H]3[C@@H]([C@@H](O)[C@@H](OC(=O)/C=C/c4ccccc4)[C@@]4(O)C(C)(C)CCC[C@]34C)[C@@H](C)C1=CC(=O)O2
Assigned category: no (0)
--
Compound: COc1ccc(-c2nnc(N3CCN(C(=O)CN4CCN(c5ccc(Cl)cc5)CC4)CC3)nc2-c2ccc(OC)cc2)cc1
Assigned category: no (0)
--
Compound: Cc1cc(C)n(C(=O)c2nn(-c3ccc(Cl)cc3)cc2O)n1
Assigned category: no (0)
--
Compound: Cc1ccc2c(c1)O/C(=C\c1ccc([N+](=O)[O-])o1)C2=O
Assigned category: yes (1)
--
Compound: COC(=O)C1(C2CC/C(C)=C/CC/C(C)=C/CC[C@@]3(C)O[C@@H]3C2)CC1 (stereo not given in full)
Assigned category: no (0)

====

System: UACC-257 melanoma
Assay overview: NCI tumour cell line growth inhibition, 48 h; in the data active = GI50 below about 0.43 µM; inactive = the rest
Outcome codes: active, inactive

Compound: Cc1cc(C)cc(Nc2ccc([N+](=O)[O-])c(NCCN3CCOCC3)n2)c1
Assigned category: inactive
--
Compound: O=C1c2ccn(CCCCN3CCCCC3)c2C(=O)c2c1c(O)c1ccccc1c2O
Assigned category: inactive
--
Compound: O=C(Nc1ccc(Cl)cc1)c1cc(S(=O)(=O)Nc2nnc(-c3ccccc3)c(-c3ccccc3)n2)c(SCc2ccccc2)cc1Cl
Assigned category: inactive
--
Compound: O=C(Nc1ccccc1O)c1ccc(CNC(=O)c2sccc2Nc2ccnc(C(F)(F)F)c2)cc1
Assigned category: inactive
--
Compound: CCOC(=O)N[C@H]1CCc2c(Br)c(OC)c(OC)c(OC)c2-c2ccc(SC)c(=O)cc21
Assigned category: inactive
--
Compound: COc1ccc(C(=O)COc2cccc(/C=C3\CSc4ccc(Cl)cc4C3=O)c2)cc1
Assigned category: inactive
--
Compound: CCCCCCC#CC#Cc1cccc(=O)o1
Assigned category: inactive
--
Compound: COc1cc2cc(Oc3ccc(NC(=O)Nc4ccc(Cl)c(C(F)(F)F)c4)cc3)c(C)nc2cc1OC
Assigned category: inactive
--
Compound: O=C(O)c1cc(Cc2ccc(O)c(C(=O)O)c2)ccc1O (tested in a mixture with another compound)
Assigned category: inactive
--
Compound: c1cc[c]([Sn]([S]c2cccc3cccnc23)([S]c2cccc3cccnc23)[c]2ccccc2)cc1
Assigned category: active
--
Compound: NC(=S)N/N=C\c1nccc2c(N)cccc12
Assigned category: inactive
--
Compound: COC(=O)OCc1ccc2c(c1)C(=O)c1c-2n(CCCBr)c(=O)c2cc([N+](=O)[O-])ccc12
Assigned category: inactive
--
Compound: C[C@]12C3CC[C@@]4(CO)C[C@]3(CCC1[C@](C)(C(=O)O)CC[C@@H]2O)CC4=O (stereo partly drawn)
Assigned category: inactive

# credit: PubChem BioAssay (NCI)
